- assay procedure: Plasma stability, mouse
- applied conditions: % parent remaining at 5 h
Measured plasma stability mouse accompanies every entry in the list below.
Numeric answer only, unit % remaining assumed.

## Input Report plasma stability mouse for OC[C@@H]1[C@H](c2ccc(Br)cc2)[C@@H]2CNCCCCN12 [29a] please.
## Output 94

## Input Let us now turn to CN1CCCCN2[C@H](CO)[C@H](c3ccccc3)[C@@H]2C1 [29c]
## Output 78

## Input Let us now turn to CCCN1C(CO)C2c3ccccc3NCC21 (racemic) [31a]
## Output 108

## Input Let us now turn to CS(=O)(=O)N1CC(=O)N2[C@H](CO)[C@H](c3ccccc3)[C@@H]2C1 [28c]
## Output 106

Switching to the query record.
## Input Report plasma stability mouse for CCCN1C2CN(Cc3ccc(F)cc3)CC1C2c1ccccc1 (centres unmarked) [27d] please.
## Output 90
